- Tested on: HOP-62
- assayRemarks: NCI tumour cell line growth inhibition, 48 h
Activity calls are given as the source filed them. Rule as the data show it: active = GI50 up to about 1.1 µM and inactive = higher.
Reported values of GI50 for individual entries

As a guide, the following entries are already answered.
O=C1C=CC(=O)C1(Br)Br
17.6 µM (inactive)
O=c1[nH]c(=O)n(C2CC(O)C(CO)O2)cc1OCCc1ccccc1 (stereo unspecified)
> 100 µM (inactive)
COc1ccc2nc(NC(=O)/C(C#N)=C/c3ccccc3)sc2c1
> 64.1 µM (inactive)
O=C(CSc1nnc(-c2ccc(/N=C\c3ccc(Cl)cc3)cc2)o1)Nc1ccc([N+](=O)[O-])cc1
32.1 µM (inactive)
CCOC(=O)C1(C)CCc2sc(N)c(C#N)c21 (stereo unspecified)
> 100 µM (inactive)

API: the following record is the query input.
# CCN(CC)C(=O)c1c(N2CCOCC2)cc(N(CC)CC)oc1=O with HOP-62: GI50 is > 100 µM (inactive)

====

Reported values of GI50 for individual entries
- Test system: OVCAR-3
- assayRemarks: NCI tumour cell line growth inhibition, 48 h
Activity calls are given as the source filed them. Rule as the data show it: active = GI50 up to about 1.1 µM and inactive = higher.

As a guide, the following entries are already answered.
Cc1nc2cc(Nc3ccccc3C(=O)O)ccc2s1
> 100 µM (inactive)
Cc1c(N)nc([C@H](CC(N)=O)NC[C@H](N)C(N)=O)nc1C(=O)N[C@H](C(=O)N[C@H](C)[C@@H](O)CC(=O)N[C@H](C(=O)NC(O[C@@H]1O[C@@H](C)[C@@H](N)[C@@H](O)[C@H]1O)C(O)c1nc(-c2nc(C(=O)NCCC[S+](C)C)cs2)cs1)[C@@H](C)O)[C@H](O[C@@H]1O[C@@H](CO)[C@@H](O)[C@H](O)[C@@H]1O[C@H]1O[C@H](CO)[C@@H](O)[C@H](OC(N)=O)[C@@H]1O)c1c[nH]cn1 (some centres undefined)
95.3 µM (inactive)
Cc1ccc(NC(=S)N/N=C2\C(=O)Nc3ccccc32)cc1
> 100 µM (inactive)
Fc1ccc(C(OCCN2CCC3CCC(C2)N3C/C=C/c2ccco2)c2ccc(F)cc2)cc1 (centres undefined)
11.4 µM (inactive)
CCOC(=O)c1nc2cc(C(F)(F)F)ccc2nc1Nc1cc(OC)c(OC)c(OC)c1
> 100 µM (inactive)

// Cc1ccc(S(=O)(=O)n2cc(C#N)c(C#N)c2)cc1 : GI50 value = 22.5 µM (inactive)

// CCCC(=O)/C=C/S/C=C/C(=O)CCC : GI50 value = 4.09 µM (inactive)

// CCCC1(N)CC(OC)OC(C)C1O (centres undefined) : GI50 value = > 100 µM (inactive)

// FC(F)(F)c1ccccc1/C=N/C12CC3CC(CC(C3)C1)C2 : GI50 value = > 100 µM (inactive)

====

Reported values of GI50 for individual entries
- System: COLO 205
- assayRemarks: NCI tumour cell line growth inhibition, 48 h
The source made the active and inactive calls. Rule as the data show it: active = GI50 up to about 1.1 µM and inactive = higher.

As a guide, the following entries are already answered.
CC1(C)CCC[C@@]2(C)C1C[C@H](O)[C@@]1(C)O[C@@](C)([C@H](O)CO)CCC21 (stereo partly specified)
25.3 µM (inactive)
CCOC(=O)c1cnc2oc3ccc(O)cc3c2c1-c1ccccc1
28.5 µM (inactive)

// O=C(O)C1(C(=O)O)CC1 : GI50 value = > 100 µM (inactive)

// Nc1ccccc1SC(/C=C/NNC1=NN=C(c2ccccc2)C(c2ccccc2)N1)c1ccccc1 (stereo unspecified) : GI50 value = 15.6 µM (inactive)

// Cc1ccc(S(=O)(=O)OC2CN3CCC2CC3)cc1 (stereo unspecified) : GI50 value = > 100 µM (inactive)

// O=C(Cc1ccccc1)NN1C(=O)/C(=C\c2cccc(O)c2)S/C1=N\c1ccccc1 : GI50 value = > 100 µM (inactive)

// CCCCCCCCCCCCCCCC1(OC)C[N+](C)(C)CCO1 (stereo unspecified) : GI50 value = 1.31 µM (inactive)

// O=C(CCc1ccc(O)c(O)c1)NCCc1cc(OCc2ccccc2)cc(OCc2ccccc2)c1 : GI50 value = 2.81 µM (inactive)

// COc1ccc2c(c1)nc1n2C(N)=Nc2ccccc2S1 : GI50 value = 6.08 µM (inactive)

// CN(C)C(=S)Nc1nnc(NC23CC4CC(CC(C4)C2)C3)s1.[O-][Cl+3]([O-])([O-])O : GI50 value = 19.8 µM (inactive)

// CCc1ccccc1NC(=O)CCc1nnc(S)[nH]1 : GI50 value = > 100 µM (inactive)
